experiment notes: in vitro
condition set: rat, gh3-tre-luc cells, AC50 (uM) modified / 1000, Tox21_110001=Tox21_200325; viability, 1 nM T3 present, 24 h
measured property: CC50 at 24 h

* O=C(O)c1cccc(Cl)c1 | > 90 µM

---

experiment notes: in vitro
condition set: rat, gh3-tre-luc cells, AC50 (uM) modified / 1000, Tox21_110001=Tox21_111697; viability, 1 nM T3 present, 24 h
measured property: CC50 at 24 h

• CCNC(C)Cc1cccc(C(F)(F)F)c1 (stereo not shown) = > 50 µM

---

experiment notes: in vitro
condition set: rat, gh3-tre-luc cells, AC50 (uM) modified / 1000
Structures can show the parent of a compound that is named as a salt.
measured property: CC50 at 24 h

- CC(=O)C1(C)CC2=C(CCCC2(C)C)CC1C (stereo not drawn) [Isocyclemone E]: > 90 µM
- CC1CCC(C(C)CS)CC1S (stereo not drawn) [Dipentenedimercaptan]: > 90 µM
- S=C=Nc1ccc(N=C=S)cc1 [Bitoscanate]: > 50 µM
- CO[SiH](C)C [Methylpolysilicone]: > 100 µM
- COc1cc(C=O)ccc1O [4-Hydroxy-3-methoxybenzaldehyde]: > 50 µM
- CNC(=O)Oc1cccc2c1OC(C)(C)C2 [Carbofuran]: > 90 µM
- COC(=O)CCC(=O)OC [Dimethyl succinate]: > 90 µM
- CC1=NN(c2cccc(S(=O)(=O)O)c2)C(=O)C1: > 90 µM
- O=S(=O)(O)OC[C@H]1O[C@@](COS(=O)(=O)O)(O[C@H]2O[C@H](COS(=O)(=O)O)[C@@H](OS(=O)(=O)O)[C@H](OS(=O)(=O)O)[C@H]2OS(=O)(=O)O)[C@@H](OS(=O)(=O)O)[C@@H]1OS(=O)(=O)O [Sucrose octasulfate, sodium salt]: > 50 µM

These entries and their values trace back to paper PMC6792352.
